# System: PC-3 prostate
# test_description: NCI-60 one-dose screen, 48 h
# measurement_parameters: 10 µM unless noted
This is part of a sample that, as a whole, favours compounds with a hit. Of some 83,000 tested, about 20% had one in any assay. Active and inactive are the calls of the source. The calls were made as follows: active = growth percent below 10; inactive = the rest.
Outcome codes: true (1) = active, false (0) = inactive

> print(dat)
                                    compound  qualitative.label
 1              COc1cccc(OC)c1OC(=O)c1ccccc1          false (0)
 2  NS(=O)(=O)c1ccc(C(=O)N/N=C(\CS(=O)(=O)c2ccccc2)c2cc3cc(Br)ccc3o2)cc1          false (0)
 3  C(=C\c1ccccc1)/CN1CCN(C(c2ccccc2)c2ccccc2)CC1          false (0)
 4            O=c1nc(NO)[nH]c(=O)n1Cc1ccccc1          false (0)
 5     COc1cc(Cn2cc(F)c(=O)[nH]c2=O)cc(OC)c1          false (0)
 6              O=c1[nH]c(=S)c2c(n1CCCO)CCC2          false (0)
 7  COc1ccccc1CNCCCCCCCCCCCCN1C(=O)c2ccc3c4c(ccc(c24)C1=O)C(=O)N(CCCCCCCCCCCCNCc1ccccc1OC)C3=O          false (0)
 8     COc1ccc(OC2=CC(=O)c3ccc(C)nc3C2=O)cc1          false (0)
 9  COc1ccc(S(=O)(=O)ON=C2C=C(C)C(=O)C(C)=C2)cc1          false (0)
10             CCCCCCCCCCCCSC1=CC(=O)C=CC1=O          false (0)
11  O=C(c1ccc2ncc(-c3nc(NC4CC4)ncc3F)n2c1)N1CCOCC1          false (0)
12           Oc1ccc(Cl)cc1CNc1nc2ccccc2[nH]1           true (1)
13  C=CC(=O)N1CC2(CC(n3nc(-c4ccc(Oc5ccccc5)cc4)c4c(N)ncnc43)C2)C1          false (0)
14  O=S(=O)(Nc1ncccn1)c1ccc(Nc2ccc3nnc(-c4ccncc4)n3n2)cc1          false (0)
15                         COc1ncc(F)c(OC)n1          false (0)
16  COc1cccc(C2CC(=O)Nc3cc4c(cc32)OCO4)c1OC (configuration not stated)          false (0)
17  COC(=O)c1c2c(c(C)[n+]([O-])c1C)C(=O)C(NCc1ccc(O)cc1)=CC2=O           true (1)
18  C[C@@H](Oc1cc(-c2cnn(C3CC4(CCNCC4)C3)c2)cnc1N)c1c(F)ccc(Cl)c1Cl           true (1)
19  COC(=O)c1cc(-c2ccc(C)cc2)n(C(=O)CSc2nc3sc(C(N)=O)c(C)c3c(=O)n2Cc2ccccc2)n1          false (0)
20    O=C1/C(=C/c2ccccc2F)CNC/C1=C\c1ccccc1F           true (1)
21  Cc1ccccc1-n1nnc(C(=O)Nc2ccc(-c3ccccc3)cn2)c1C          false (0)
22  COC(=O)c1c2c(c(C)[n+]([O-])c1C)C(=O)C=C(NCc1cccc(OC)c1)C2=O           true (1)
